assay: Tissue protein binding (micro-equilibrium dialysis); assay type: in vitro ADME, mice; settings: pooled brain homogenate in PBS (1:3 m:v); pooled mouse brain homogenized with PBS (1:3), 6 hours at 37° C.; read-out: % FU Brain
Measure: fraction unbound at 6 h
Number only, please.

molecule `Brc1ccc2[nH]c(Cn3cncc3-c3ccc[nH]3)cc2c1` , fraction unbound at 6 h observed: 0.0161

* * *

test: Pharmacokinetics studies in mice (plasma and brain concentration); assay type: in vivo; conditions: mouse, brain, ip, 20 mg/kg, 20 mg/kg IP, 0.25 hr, read-out: Tissue Concentration Brain Mean
Measure: concentration at 0.25 h (ng/g)
Express the result in ng/g but write the number alone.

So, `Brc1ccc2[nH]c(Cn3cncc3-c3ccc[nH]3)cc2c1` ? Its concentration at 0.25 h was 1660

* * *

assay: Pharmacokinetics studies in mice (plasma and brain concentration); type: in vivo; conditions: mouse, brain, po, 20 mg/kg, 20 mg/kg PO, 0.5 Hr, individual mouse M1, read-out: Brain concentration M1
Measure: concentration at 0.5 h (ng/mL)
Output spec: scalar in ng/mL, unitless text.

The molecule listed as `Fc1ccc2[nH]c(Cn3cncc3-c3ccc[nH]3)cc2c1` has a reported concentration at 0.5 h of 2390

* * *

experiment: Pharmacokinetics studies in mice (plasma and brain concentration); type: in vivo; conditions: mouse, brain, po, 20 mg/kg, 20 mg/kg PO, 0.5 Hr, read-out: Brain concentration Mean
Measure: concentration at 0.5 h (ng/mL)
Provide only the numeric value, understood in ng/mL.

Item: `Fc1ccc2[nH]c(Cn3cncc3-c3ccc[nH]3)cc2c1` | concentration at 0.5 h: 1940

* * *

test: Pharmacokinetics studies in mice (plasma and brain concentration); assay type: in vivo; settings: mouse, plasma, po, 20 mg/kg, 20 mg/kg PO, 2 Hr, individual mouse M4, read-out: Plasma concentration M4
Measure: concentration at 2 h (ng/mL)
# output: bare number, implied unit ng/mL

Summary for this compound, `Fc1ccc2[nH]c(Cn3cncc3-c3ccc[nH]3)cc2c1` : concentration at 2 h is 629

* * *

experiment: Pharmacokinetics studies in mice (plasma and brain concentration); type: in vivo; conditions: mouse, plasma, po, 20 mg/kg, 20 mg/kg PO, 0.5 Hr, read-out: Plasma concentration Mean
Measure: concentration at 0.5 h (ng/mL)
Write the answer as a number in ng/mL, unit excluded.

For `Fc1ccc2[nH]c(Cn3cncc3-c3ccc[nH]3)cc2c1` the molecule record lists concentration at 0.5 h as 2330

* * *

assay: Pharmacokinetics studies in mice (plasma and brain concentration); format: in vivo; conditions: mouse, brain/plasma, po, 20 mg/kg, 20 mg/kg PO, 2 Hr, read-out: B/P Ratio Mean
Measure: Kp at 2 h
// response body must contain only the number

Briefly, Kp at 2 h measured for Fc1ccc2[nH]c(Cn3cncc3-c3ccc[nH]3)cc2c1 [Compound G29] : 5.3

* * *

test: Pharmacokinetics studies in mice (plasma and brain concentration); format: in vivo; conditions: mouse, plasma, po, 20 mg/kg, 20 mg/kg PO, 0.5 Hr, individual mouse M3, read-out: Plasma concentration M3
Measure: concentration at 0.5 h

Short answer for Fc1ccc2[nH]c(Cn3cncc3-c3ccc[nH]3)cc2c1 [Compound G29] : concentration at 0.5 h was 2740 ng/mL

* * *

test: Pharmacokinetics studies in mice (plasma and brain concentration); assay type: in vivo; details: mouse, brain, po, 20 mg/kg, 20 mg/kg PO, 2 Hr, individual mouse M4, read-out: Brain concentration M4
Measure: concentration at 2 h

`Fc1ccc2[nH]c(Cn3cncc3-c3ccc[nH]3)cc2c1` has a reported concentration at 2 h of 3450 ng/mL

Entry source: patent US11572354B2
